ASSAY_TARGET: γ2δ3 TCR-hFc mutant S5 (D70N, E67Q in the Vδ3 chain) (human) (UniProt B7Z8K6)
ASSAY_INFO: Luminex beads; TCR-hFc captured by goat anti-human Fc; antibody titrated
Provide the reported EC50 of each item.
Field: numeric (nM). Do not append units.

Task: Note down EC50 recorded for δ3-42 (antibody, V domains shown) VH: DVQLQESGPDLVKPSQSLSLTCTVTGYSITSGYNWHWIRQFPGNKLEWMGYIHYSGNTDYNPSLRSRISITRDTSKNQFFLHLNSVPTEDTATYYCARSGITTDWYFDVWGAGTTVTVSS VL: QIVLSQSPAILSASPGEKVTMTCRASSSVNYMHWYQQKPGSSPKPWIYATSNLASGVPARFSGSGSGTSYSLTISKVEAEDAATYYCQQWSSHQPTFGAGTKLELK
Result: 0.08

Task: Note down EC50 recorded for δ3-08 (antibody, V domains shown) VH: EEKLEESGGGLVQPGGSMKLSCVASGFIFSIYWMNWVRQSPEKGLEWVGQIRLKSDNYATHYAESVKGRFTISRDDSKSSVYLQMNNLRAEDTGIYYCMYYGSSYERFAYWGQGTLVTVSA VL: DIQMIQSPASLSVSVGETVTITCRASENIYSNLAWYQQKQGKSPQLLVYVATKLADGVPSRFSGSGSGTQYSLKINSLQSEDFGSYYCQHFWGTPPWTFGGGTKLEIK
Result: 0.05

Task: Note down EC50 recorded for δ3-31 (antibody, V domains shown) VH: DVQLQESGPDLVKPSQSLSLTCTVTGYSITSGYGWHWIRQFPGNKLEWMGYISFSGSNKYNPSLKSRISITRDTSKNQFFLQLNSVTTEDTATYYCANLDYWGQGTTLTVSS VL: DIQMTQRTSSLSASLGDRVTISCSASQDITNYLHWFQQKPDGTVKLLIYYTSTLHSGVPSRFSGSGSGTDYSLTISNLEPEDIATYYCQQYSKLPYTFGGGTKLEITR
Result: 4.99

Task: Note down EC50 recorded for δ3-23 (antibody, V domains shown) VH: EVQLQQSGAELVKPGASVKLSCTASGFNIRDTYMHWVKQRPEQGLEWIGRIDPANGNTKYDPKFRGKATITADTSSNTAYLQLSSLTSEGTAVYYCSEGIYFDYWGQGTTLTVSS VL: DILLTQSPAILSVSPGERVSFSCRASQNIGTIIHWYQQRANGSPRLLIKYASESISGIPSRFSGSGSGTDFTLSINSVESEDIADYYCQQSNSWPYTFGGGTKLEIKR
Result: 0.04
